Test: TOX21_p53_BLA_p3_viability: Viability Assessment in the Tox21 HCT-116 p53 Agonism Beta-lactamase Assay, Phase 3 (AID 2283593);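 also: cells exposed to compound for 16 h before reading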
Records with an inconclusive call do not appear. The source made the active and inactive calls. The calls were made as follows: active = hit-call score of the fitted dose curve at least 0.9, where 1 is the maximum; inconclusive = response in the unintended direction; inactive = score below 0.9. *1 amine or outer side, *2 acyl side, *3 side chain or, on linkers, in order; H or OH if unused. Where a SMILES comes first, the peptide text is derived from it. Bridges are numbered along the chain shown (N, C = ends). Roman numbers before positions name the chains, in order. [ ]: non-standard residue; d: D form. The star is where a group is joined. Actinocin(9to1) = Cc1c2oc3c(C)ccc(C(=O)[*:1])c3nc-2c(C(=O)[*:2])c(N)c1=O; Ileψ(thiazoline)Cys = CC[C@H](C)[C@H](N)C1=N[C@H](C(=O)*)CS1; NMeV = CN[C@H](C(=O)O)C(C)C; dOrn = NCCC[C@@H](N)C(=O)O; Sar = CNCC(=O)O
Classes used: active, inactive

# COMPOUND, CAT
measured = [
    ("C=CC(C)(O)CC/C=C(\\C)CCC=C(C)C (stereo unspecified)", "inactive"),
    ("CCCCOc1cc(C(=O)NCCN(CC)CC)c2ccccc2n1", "inactive"),
    ("O=C(NOCC1CC1)c1ccc(F)c(F)c1Nc1ccc(I)cc1Cl", "active"),
    ("CC(C(=O)O)c1ccc(C(=O)c2ccccc2)s1 (stereo unspecified)", "inactive"),
    ("CC1=C(/C=C/C(C)=C/C=C/C(C)=C/C=C/C=C(C)/C=C/C=C(C)/C=C/C2=C(C)C[C@@H](O)CC2(C)C)C(C)(C)C[C@H](O)C1", "inactive"),
    ("Cc1cc(O)c2c(c1)O[C@@]1(C)CC[C@H]3C(C)(C)CCCC34CO[C@@H]2[C@H]41 (stereo partly specified)", "active"),
    ("NCCc1cnc[nH]1", "inactive"),
    ("C/C(=N\\O)c1ccc(OCC(=O)N2CCCCC2)cc1", "inactive"),
    ("C[N+]12CCC(CC1)C(OC(=O)C(O)(c1ccccc1)c1ccccc1)C2 (stereo unspecified)", "inactive"),
    ("COC(=O)C1=C(C)NC(COC(N)=O)=C(C(=O)OC(C)C)C1c1cccc(Cl)c1Cl (stereo unspecified)", "inactive"),
    ("N#CC1(O)CCCCC1", "inactive"),
    ("C=COCC(C)C", "inactive"),
    ("N[C@@H](Cc1cc(I)c(O)c(I)c1)C(=O)O", "inactive"),
    ("NC[C@@H]1CC[C@@H](N)[C@@H](O[C@H]2[C@H](O)[C@@H](O[C@H]3O[C@H](CO)[C@@H](O)[C@H](N)[C@H]3O)[C@H](N)C[C@@H]2N)O1", "inactive"),
    ("CCCCCCCCCCn1cc[n+](CCCCCCCCCC)c1C", "active"),
    ("Cc1ccccn1", "inactive"),
    ("CCCCC(CC)COC(=O)C(C#N)=C(c1ccccc1)c1ccccc1 (stereo unspecified)", "inactive"),
    ("CNc1ccc(O)cc1", "active"),
    ("CCOc1ccc(NC(=O)OC(C)C)cc1OCC", "inactive"),
    ("CC(C)=CCOc1ccc(/C=C/C(=O)c2ccc(OCC=C(C)C)cc2OCC(=O)O)cc1", "active"),
    ("Cc1c2oc3c(C)ccc(C(=O)N[C@@H]4C(=O)N[C@H](C(C)C)C(=O)N5CCC[C@H]5C(=O)N(C)CC(=O)N(C)[C@@H](C(C)C)C(=O)O[C@@H]4C)c3nc-2c(C(=O)N[C@@H]2C(=O)N[C@H](C(C)C)C(=O)N3CCC[C@H]3C(=O)N(C)CC(=O)N(C)[C@@H](C(C)C)C(=O)O[C@@H]2C)c(N)c1=O (I: T[dV]P[Sar][NMeV] / II: T[dV]P[Sar][NMeV]; ester I:1-I:C, II:1-II:C; linker I:N-II:N via Actinocin(9to1))", "active"),
    ("Oc1ccc(OCc2ccccc2)cc1", "inactive"),
    ("O=S(c1cc(Cl)cc(Cl)c1O)c1cc(Cl)cc(Cl)c1O", "inactive"),
    ("FC(F)(F)C(F)(F)C(F)(F)C(F)(F)C(F)(F)C(F)(F)C(F)(F)C(F)(F)Br", "inactive"),
    ("CCc1cccc(N(C)C(N)=Nc2cccc3ccccc23)c1", "inactive"),
    ("CC(N)C(=O)OC(C)(C)Cc1ccc(Cl)cc1 (stereo unspecified)", "inactive"),
    ("CC(=O)c1ccc2c(c1)N(CCCN1CCN(CCO)CC1)c1ccccc1S2", "inactive"),
    ("Cc1c(-c2ccccc2)oc2c(C(=O)OCCN3CCCCC3)cccc2c1=O", "inactive"),
    ("CC[C@H](C)[C@H](N)C1=N[C@H](C(=O)N[C@@H](CC(C)C)C(=O)N[C@H](CCC(=O)O)C(=O)N[C@H](C(=O)N[C@H]2CCCCNC(=O)[C@H](CC(N)=O)NC(=O)[C@@H](CC(=O)O)NC(=O)[C@H](Cc3cnc[nH]3)NC(=O)[C@@H](Cc3ccccc3)NC(=O)[C@H]([C@@H](C)CC)NC(=O)[C@@H](CCCN)NC2=O)[C@@H](C)CC)CS1 ({Ileψ(thiazoline)Cys}-L[dE]IK[dOrn]I[dF]H[dD]N; lactam 4-C)", "inactive"),
    ("O=C1O[C@H]2[C@H](O)[C@@H]1OC(O)[C@H]2O (stereo partly specified)", "inactive"),
    ("CCC(=O)c1ccc(O)cc1", "inactive"),
]

###

Assay: TOX21_p53_BLA_p2_viability: Viability Assessment in the Tox21 HCT-116 p53 Agonism Beta-lactamase Assay, Phase 2 (AID 2283591);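 also: compound exposure lasted 16 h at 37 °C; actives lower the ATP signal meaning cytotoxicity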
Records with an inconclusive call do not appear. Calls of active or inactive are those of the source. Rule for the calls: active = hit-call score of the fitted dose curve at least 0.9, where 1 is the maximum; inconclusive = response in the unintended direction; inactive = score below 0.9.
Outcomes: True = active, False = inactive

# MOLECULE, CAT
data = [
    ("C[C@@H](O)[C@H](N)C(=O)O", "False"),
    ("C=CCOc1ccc(CC(=O)O)cc1Cl", "False"),
    ("CO[C@H]1C[C@H](O[C@H]2[C@H](C)[C@@H](O[C@@H]3O[C@H](C)C[C@H](N(C)C)[C@H]3OC(C)=O)[C@@H](C)C[C@]3(CO3)C(=O)[C@H](C)[C@@H](OC(C)=O)[C@@H](C)[C@@H](C)OC(=O)[C@@H]2C)O[C@@H](C)[C@@H]1OC(C)=O", "False"),
    ("CCCC(c1cc(C(C)(C)C)c(O)cc1C)c1cc(C(C)(C)C)c(O)cc1C", "True"),
    ("CCC1=C(C)CN(C(=O)NCCc2ccc(S(=O)(=O)NC(=O)NC3CCC(C)CC3)cc2)C1=O (stereo unspecified)", "False"),
    ("C[N+]1(C)CCC(OC(=O)C(O)(c2ccccc2)C2CCCC2)C1 (stereo unspecified)", "False"),
    ("C[C@]12O[C@H](C[C@]1(O)CO)n1c3ccccc3c3c4c(c5c6ccccc6n2c5c31)CNC4=O", "True"),
    ("Nc1ccc(Oc2ccc(Cl)cc2)cc1", "False"),
    ("CC[C@H]1OC(=O)[C@H](C)[C@@H](O[C@H]2C[C@@](C)(OC)[C@@H](O)[C@H](C)O2)[C@H](C)[C@@H](O[C@@H]2O[C@H](C)C[C@H](N(C)C)[C@H]2O)[C@](C)(O)C[C@@H](C)[C@@H]2N[C@@H](COCCOC)O[C@@H]([C@H]2C)[C@]1(C)O", "False"),
    ("CCOC(=O)OC(C)OC1=C(C(=O)Nc2ccccn2)N(C)S(=O)(=O)c2ccccc21 (stereo unspecified)", "False"),
    ("CC(C)[C@@H]1CC[C@@H](C)C[C@H]1OC(=O)c1ccccc1O", "False"),
    ("CCCCCC[C@@H](O)C/C=C\\CCCCCCCC(=O)O", "False"),
    ("COC(OC)C(C)c1ccccc1 (stereo unspecified)", "False"),
    ("O=C(O)CNCC(=O)O", "False"),
    ("Cc1cc(-c2ccccc2)nnc1NCCN1CCOCC1", "False"),
    ("CCOC(=O)[C@H](CCc1ccccc1)N[C@@H](C)C(=O)N1[C@H](C(=O)O)C[C@H]2CCCC[C@@H]21", "False"),
    ("Nc1nc(Cl)nc2c1ncn2[C@@H]1O[C@H](CO)[C@@H](O)[C@@H]1F", "False"),
    ("CC(=O)Nc1ccc(OC(C)=O)cc1", "False"),
    ("Nc1c(Br)cc(Br)cc1CNC1CCC(O)CC1 (stereo unspecified)", "False"),
    ("COc1cc(/C=C/C(=O)O[C@H]2CC[C@]34C[C@]35CC[C@]3(C)[C@@H]([C@H](C)CCC=C(C)C)CC[C@@]3(C)[C@@H]5CC[C@H]4C2(C)C)ccc1O", "False"),
    ("CC(O)CN(C)C (stereo unspecified)", "False"),
]
